- System: wild-type P. aeruginosa PA14
- assayInfo: microbe, parasite or virus in culture
- Assay type: cell-based
- conditionNotes: Pseudomonas aeruginosa, PA14, 17 h, read-out: Efficacy (%), Table 2; reduction of pyocyanin vs WT P. aeruginosa PA14: 0% = WT level, 100% = background medium, negative = agonist
inhibition at 100 µM: recorded values
Report only the number, with the unit % understood.

// below: answered molecules
{"molecule": "CCCCCCCCCCCC(=O)Nc1ccnc(C)c1", "endpointName": "inhibition at 100 µM", "unitOfMeasure": "%", "measuredNumber": -19}
{"molecule": "CCCCCCCCCCCC(=O)Nc1cc(C)nc2ccccc12", "endpointName": "inhibition at 100 µM", "unitOfMeasure": "%", "measuredNumber": -24}
{"molecule": "CCCCCCCCCCCCNC(=O)c1cc2ccccc2n1C", "endpointName": "inhibition at 100 µM", "unitOfMeasure": "%", "measuredNumber": -9.2}
{"molecule": "CCCCCCCCCCCC(=O)Nc1ccncc1C(F)(F)F", "endpointName": "inhibition at 100 µM", "unitOfMeasure": "%", "measuredNumber": -17}
{"molecule": "CCCCCCCCCCCC(=O)Nc1ccnc(OC)c1", "endpointName": "inhibition at 100 µM", "unitOfMeasure": "%", "measuredNumber": -5.1}
{"molecule": "CCCCCCCCCCCC(=O)N1CCN(c2ccncc2)CC1", "endpointName": "inhibition at 100 µM", "unitOfMeasure": "%", "measuredNumber": -42}

**Query** // returns reported inhibition at 100 µM for input CCCCCCCCCCCC(=O)O/N=C1\COc2ccccc21 [S29, C12-dihydrobenzofuran acylhydroxylamine]
**Result** 12

**Query** Also CCCCCCCCCCCC(=O)Nc1ccc2c(c1)c1ccccc1n2CC , if possible.
**Result** -1

**Query** Also CCCCCCCCCCCC(=O)Nc1ccnc(C(F)(F)F)c1 , if possible.
**Result** 27

**Query** Also CCCCCCCCCCCCNC(=O)c1c[nH]c2ccccc12 , if possible.
**Result** 4.4

**Query** Also CCCCCCCCCCCC(=O)Nc1ccc2[nH]ccc2c1 , if possible.
**Result** -11

**Query** Also CCCCCCOC(=O)C1COc2ccccc21 (stereo not shown) [S28, C6-dihydrobenzofuran ester] , if possible.
**Result** 1.5

====

- System: wild-type P. aeruginosa PA14
- assayInfo: microbe, parasite or virus in culture
- Format: cell-based
- conditionNotes: Pseudomonas aeruginosa, PA14, 17 h, read-out: Efficacy (%), Table 2; reduction of pyocyanin vs WT P. aeruginosa PA14: 0% = WT level, 100% = background medium, negative = agonist
endpointName: inhibition at 100 µM (%)
Report only the number, with the unit % understood.

{"compound": "CCCCCCCCCCCCNC(=O)Cc1c[nH]c2ccccc12", "targetEntity": "wild-type P. aeruginosa PA14", "measuredNumber": 0.6}
{"compound": "CCCCCCCCCCCC(=O)OCc1ccncc1 [S23, C12-4-(hydroxymethyl)pyridine]", "targetEntity": "wild-type P. aeruginosa PA14", "measuredNumber": -15}
{"compound": "CCCCCCCCCC(=O)CC(=O)Nc1ccnc(OC)c1", "targetEntity": "wild-type P. aeruginosa PA14", "measuredNumber": 24}
{"compound": "CCCCCCCCCC(=O)CC(=O)Nc1ccnc(F)c1", "targetEntity": "wild-type P. aeruginosa PA14", "measuredNumber": -8.5}
{"compound": "CCCCCCCCCC(=O)CC(=O)Nc1ccc2c(c1)c1ccccc1n2CC", "targetEntity": "wild-type P. aeruginosa PA14", "measuredNumber": 9.3}
{"compound": "CCCCCCCCCCCC(=O)Nc1ccnc(F)c1", "targetEntity": "wild-type P. aeruginosa PA14", "measuredNumber": 70}

Then there is this compound:
**Query** // returns reported inhibition at 100 µM for input CCCCCCCCCCCC(=O)Nc1ccnc(Br)c1
**Result** 34
